Recorded values, source the supplement of paper PMC12764529.

Assay: folding stability dG unfold from chymotrypsin proteolysis; higher = more stable
Decide using folding stability dG unfold: a value greater than or equal to 4 kcal/mol is yes (1), a smaller one is no (0).

> print(dat)
                              entrysequence  qualitativelabel
1  SAGGPEELAERIAEFARENGYEVDVLSVEELPGDFVRIHMRIRGLSEDEPVFERDAVLVFPPLPGERSAGGS [r8_102_TrMRF]            no (0)
2  SAGGSAGGSAGPTLTLTLPPGKLSPEFLEALAAQGYTLGEVTVTEVPEDDTVVVTVTTAPSAGGSAGGSAGG [r11_345_JUSTAS]            no (0)
3  SEVEVTVTVTLTRRLPDGREREVTVTLTLRLEFDPELSEEELESPELRKRLEELRREALERARRLAEELASA [r9_237_TrROS_Hall]           yes (1)
4  SMRIHDSNGQSYTIMIRTPDPNVTPEKIVKAIDEAGYKVTEIQRPPEKGHVHINIRVRDRERAIEAIKELSA [r9_1154_TrROS]            no (0)
5  SMVKIYFPNAPPELVAEAIEKHPDSTVEIYFEPGKPDVFESILKDYDVEVEPFPTEDGRLLVKARVKVPGSA [r9_1138_TrMRF]            no (0)
6  SAGGPKWYYITIKIPDDPKKAERLVDRLQDLFGEDVRINVNPGNNHVTVWIPNDLRPLLKDHGLEITPSAGG [r13_156_TrROS]            no (0)

Input line: Hello, I need to know if SAGGSAGGSAMVVEIKPEKLPNGKYKVTVTITDPSTGKTTTTPYIVDPNKFTEEDIKKKLSSAGGSAGGSAG [r3_127_JUSTAS] has measured folding stability dG unfold not below 4 kcal/mol. Thanks!
Output line: no (0)

Input line: Hello, I need to know if MKEYLIKIKITITDPNGKKREIEITVLVPAEELTEEQLKELLEKAKELAEKLKEKGYEVKVEVEIIPLEELS [r1_221_TrROS_Hall] has measured folding stability dG unfold not below 4 kcal/mol. Thanks!
Output line: yes (1)

Input line: Hello, I need to know if SMKIKIEPLPDGSYRLVAEVPEDAEETENLFPLTGKPIVVKREKNKLVIEFDNPEEVELFAEALKKNIPLSA [r9_515_TrMRF] has measured folding stability dG unfold not below 4 kcal/mol. Thanks!
Output line: no (0)

Input line: Hello, I need to know if SAGGSAGGMKIKVKFTITKSDPNSDSPVPRVITKEFESLEEAEKEFNKLKNLPSGYTVEVEIVESAGGSAGG [r7_0_JUSTAS] has measured folding stability dG unfold not below 4 kcal/mol. Thanks!
Output line: no (0)

Input line: Hello, I need to know if SAGGSAGGAEVVKVDPKPAGVTTVLERYPDGTLRLLKETEENGKLTVSEVETIPVPDISKPPLLSAGGSAGG [r6_836_JUSTAS] has measured folding stability dG unfold not below 4 kcal/mol. Thanks!
Output line: no (0)

###

Experiment: folding stability dG unfold (combined trypsin and chymotrypsin); higher = more stable
measurementLabel: folding stability dG unfold (kcal/mol)
Give the value, in units of kcal/mol, as a plain number.

In the examples that follow, each entry is paired with its recorded folding stability dG unfold.
> print(dat)
                              entrysequence  resultvalue
1  SAGAPGEVTVTVVRRPRVETEEERRRRRAPPPPVVTLTLKVPPGWVVRRVAFNADGEIVSVELYRRDDLSAG [r5_750_TrROS_Hall]         2.54
2  SAGGSAMTITVTEETDPNTDRKTTTVSLSPGVSEEVLEELKAEAEKKGAKLTVYPEEGVVTVVTPESAGGSA [r15_542_JUSTAS]        0.224

Consider the additional sequence presented here.
Input line: Answer with reported folding stability dG unfold of SAGGSAGGSAGKKPPVYRLVVENEDGEKYEFEFKSLEDLKAALESEEVRKKIKKVKIEKVSAGGSAGGSAGG [r11_1047_TrROS_Hall]
Output line: 2.6

###

Experiment: folding stability dG unfold from trypsin proteolysis; higher = more stable
measurementLabel: folding stability dG unfold (kcal/mol)
Give the value, in units of kcal/mol, as a plain number.

In the examples that follow, each entry is paired with its recorded folding stability dG unfold.
> print(dat)
                              entrysequence  resultvalue
1  SAGGSAGGSAGGSKYEIEILKIEELEDDSYRITAKINIPEAGTTEEITLTVPKGVELKLSAGGSAGGSAGGS [r4_133_TrMRF]         1.21
2  SAEVETVTLELELPEDGYRVTITVTYNKETGEVTVEIRIINPNGEEKTITIKVKSLEEALKKLEFKLLPSAG [r14_749_TrROS_Hall]         2.13
3  SAGGKKKKKKKKKKKKKVKVRVRIVVENKNGEKKEIEIELKGLTLEELKKLAKELEKKGFKVKKIEIESAGG [r13_227_TrROS_Hall]         3.28
4  SAGGKIEEVARELAKELNAVSIDFRTEGDVPSVEIRFRIPGSPLWLRVTITRDPDGNISVSIEPDPRSAGGS [r16_433_TrMRF]         2.94
5  SYSTSTVTVPVAADEIDKAKEIAKELAEKLPPNSRVTFNMPAPDGSTFTVEVTVNPDGTITVTVSDSLPAVS [r1_350_JUSTAS]         1.55

Input line: Answer with reported folding stability dG unfold of SAGGSAGGMIEVESFPEIGYILVKAKSEKPEEIAKEVLEKFNVKEAVVFEDPEKPYVYILAKIDSAGGSAGG [r6_661_TrMRF]
Output line: 0.97

Input line: Answer with reported folding stability dG unfold of SAGGSAGGSAGGSMAIPVYLKIENKVLTSLDELKEAVESGKPIEIERIEAFDLSPDEEVSAGGSAGGSAGGS [r4_479_TrMRF]
Output line: -0.74

###

Test: folding stability dG unfold (combined trypsin and chymotrypsin); higher = more stable
measurementLabel: folding stability dG unfold (kcal/mol)
Give the value, in units of kcal/mol, as a plain number.

> print(dat)
                              entrysequence  resultvalue
1  SAGGSAGGSAGGDIFIPPNGKLVVIENLPSIEEALEILKNFPNLKPFIDPKTKKIIVPVSAGGSAGGSAGGS [r10_792_TrMRF]       -0.216
2  SAGGSAGGTIRIPPAARNMMKELQKQGFVIEEIKIDEIERTENGPPWIEIDFEIKKLPPEALKDSAGGSAGG [r6_771_TrROS]       -0.939
3  SAGGSAGGRVVLSAEEIEKLKPGDEIELLVRDKETGEWRRVKARVVRIERVGDRVYVEIEIEPESAGGSAGG [r6_753_TrROS_Hall]         4.29

Input line: Answer with reported folding stability dG unfold of SAGGSAGGSKPGEVYEVKVKIKDKETGKYYEVKVKVYRLEDGTLLIEVDGKIFEVPVKDIEIESAGGSAGGS [r12_790_TrROS_Hall]
Output line: 3.99

Input line: Answer with reported folding stability dG unfold of SAGGGMSTYTITINIVIDPKEKKVPKPPLKDPFKLPPLKTIPITITAETSDPAVAAALEKAVKEALGLSAGG [r13_35_JUSTAS]
Output line: 2

Input line: Answer with reported folding stability dG unfold of SAGGAKIKFDIEPTNNTIRVKIEIWLPGGPVEIVEEEPVRVDPNGGIWISFRIRYPDGKPQEFQIPISAGGS [r8_449_TrROS]
Output line: 2.88

Input line: Answer with reported folding stability dG unfold of SAGKKLFIKVKIRVKKKVKLKDGKTVEKEKELTLLIEAESEEEALEAAKKLAEELGLEIEKVEIFKAPSAGG [r19_176_TrROS_Hall]
Output line: 3.09

Input line: Answer with reported folding stability dG unfold of SAGGSAGGSAGGDSNVDNFTLMFPWGWVVKIDITYTDGGLETDWEIIEPVPPLPPDDKNKSAGGSAGGSAGG [r7_845_TrROS]
Output line: 2.77

Input line: Answer with reported folding stability dG unfold of SAGMPSFTTTSAPTEQLPELLAELATRPPNVSYTFPLPDPSRSLSLSVSADRITLTDPATGTTTTLPASAGG [r19_154_JUSTAS]
Output line: -0.779

Input line: Answer with reported folding stability dG unfold of SAGGGPSMTITVTVSSSELTSGSGPGPLTPEDVAKRLEAELPPGNVTVTVVEVDPATGEVTVRIEVESAGGS [r16_284_JUSTAS]
Output line: 1.17

Input line: Answer with reported folding stability dG unfold of SAGEATVEKLEDGYVVVFKDGSVAFLPAVPPAVPVVEIPFKDPEEGRRAVEELGADVLDIGDDSIVVAGSAG [r5_328_TrMRF]
Output line: -0.01
